Listed binders paired with reported pKd
Target: T1, human GPC3 (human, UniProt P51654 25-563)
T1 construct: range 25-563; soluble analyte; also called soluble human GPC3; glypican 3
T1 sequence (P51654 25-563 limits assumed): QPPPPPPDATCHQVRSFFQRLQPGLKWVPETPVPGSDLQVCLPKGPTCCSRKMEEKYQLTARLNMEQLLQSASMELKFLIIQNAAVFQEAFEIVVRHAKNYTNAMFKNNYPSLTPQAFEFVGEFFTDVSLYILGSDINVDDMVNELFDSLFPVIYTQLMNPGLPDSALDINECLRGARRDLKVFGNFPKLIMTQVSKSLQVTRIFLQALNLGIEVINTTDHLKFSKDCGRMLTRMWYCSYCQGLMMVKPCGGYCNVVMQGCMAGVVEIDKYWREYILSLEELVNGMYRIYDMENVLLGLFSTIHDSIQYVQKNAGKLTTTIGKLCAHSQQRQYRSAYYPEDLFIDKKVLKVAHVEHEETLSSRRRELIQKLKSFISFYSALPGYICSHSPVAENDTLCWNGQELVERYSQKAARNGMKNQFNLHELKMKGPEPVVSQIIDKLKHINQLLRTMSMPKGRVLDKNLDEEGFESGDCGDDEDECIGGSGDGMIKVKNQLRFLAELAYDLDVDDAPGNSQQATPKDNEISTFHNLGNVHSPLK
Assay: SPR
pKd: −log10 of the molar value.
property measured: pKd

>  <binder>
H0610-G1dh/none-Hi-Kn010G3/L0167-k0 (antibody, V domains shown, one-arm) VH: QVQLVQSGAEVKKPGASVKVSCKASGYTFTDYEMHWIRQPPGQGLEWIGAIDGKTPDTAYSQKFKGRVTLTADKSTSTAYMELSSLTSEDTAVYYCTRFYSYTYWGQGTLVTVSS VL: DIVMTQSPLSLPVTPGEPASISCRSSQSLVHSNRNTYLHWYQQKPGQAPRLLIYKVSNRFSGVPDRFSGSGSGTDFTLKISRVEAEDVGVYYCGQSTQVPYTFGQGTKLEIK

>  <property measured>
pKd

>  <measured value>
9.68

$$$$
>  <binder>
H0610-G1dh/none-Hi-Kn010G3/L0085-k0 (antibody, V domains shown, one-arm) VH: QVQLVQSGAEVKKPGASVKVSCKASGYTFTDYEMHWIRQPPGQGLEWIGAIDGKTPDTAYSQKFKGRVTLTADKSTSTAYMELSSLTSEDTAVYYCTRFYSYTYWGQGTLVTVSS VL: DIVMTQSPLSLPVTPGEPASISCRSSQSLVHSNRNTYLEWYQQKPGQAPRLLIYKVSNRFSGVPDRFSGSGSGTDFTLKISRVEAEDVGVYYCGQGTQVPYTFGQGTKLEIK

>  <property measured>
pKd

>  <measured value>
8.93

$$$$
>  <binder>
H0610-G1dh/none-Hi-Kn010G3/L0216-k0 (antibody, V domains shown, one-arm) VH: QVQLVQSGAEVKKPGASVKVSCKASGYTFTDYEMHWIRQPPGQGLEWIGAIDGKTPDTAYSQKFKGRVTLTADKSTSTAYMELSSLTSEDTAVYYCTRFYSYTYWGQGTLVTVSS VL: DIVMTQSPLSLPVTPGEPASISCRSSQPLVHSNRNTYLHWYQQKPGQAPRLLIYKVSNRFRGVPDRFSGSGSGTDFTLKISRVEAEDVGVYYCGQGTQVPYTFGQGTKLEIK

>  <property measured>
pKd

>  <measured value>
8.73

$$$$
